All values here come from ChEMBL document CHEMBL2321872.

# TARGET ENTITY: Enoyl-[acyl-carrier-protein] reductase [NADH] (Mycobacterium tuberculosis, UniProt P9WGR1, S94A)
PROPERTY: pKi
# pKi is unitless: minus log10 of the molar concentration; print number only

Q: Query: pKi; subject: CC(C)[C@H]1OC(=O)[C@H](C)[C@H](O)[C@H](Cc2cccnc2)NC(=O)[C@@H](NC(=O)c2ncccc2O)[C@@H](C)OC1=O
Ans: 4.15
